Measured pIC50 by item
# System Under Test: FLT3 (Homo sapiens, UniProt P36888)
# Sequence (P36888 27-993): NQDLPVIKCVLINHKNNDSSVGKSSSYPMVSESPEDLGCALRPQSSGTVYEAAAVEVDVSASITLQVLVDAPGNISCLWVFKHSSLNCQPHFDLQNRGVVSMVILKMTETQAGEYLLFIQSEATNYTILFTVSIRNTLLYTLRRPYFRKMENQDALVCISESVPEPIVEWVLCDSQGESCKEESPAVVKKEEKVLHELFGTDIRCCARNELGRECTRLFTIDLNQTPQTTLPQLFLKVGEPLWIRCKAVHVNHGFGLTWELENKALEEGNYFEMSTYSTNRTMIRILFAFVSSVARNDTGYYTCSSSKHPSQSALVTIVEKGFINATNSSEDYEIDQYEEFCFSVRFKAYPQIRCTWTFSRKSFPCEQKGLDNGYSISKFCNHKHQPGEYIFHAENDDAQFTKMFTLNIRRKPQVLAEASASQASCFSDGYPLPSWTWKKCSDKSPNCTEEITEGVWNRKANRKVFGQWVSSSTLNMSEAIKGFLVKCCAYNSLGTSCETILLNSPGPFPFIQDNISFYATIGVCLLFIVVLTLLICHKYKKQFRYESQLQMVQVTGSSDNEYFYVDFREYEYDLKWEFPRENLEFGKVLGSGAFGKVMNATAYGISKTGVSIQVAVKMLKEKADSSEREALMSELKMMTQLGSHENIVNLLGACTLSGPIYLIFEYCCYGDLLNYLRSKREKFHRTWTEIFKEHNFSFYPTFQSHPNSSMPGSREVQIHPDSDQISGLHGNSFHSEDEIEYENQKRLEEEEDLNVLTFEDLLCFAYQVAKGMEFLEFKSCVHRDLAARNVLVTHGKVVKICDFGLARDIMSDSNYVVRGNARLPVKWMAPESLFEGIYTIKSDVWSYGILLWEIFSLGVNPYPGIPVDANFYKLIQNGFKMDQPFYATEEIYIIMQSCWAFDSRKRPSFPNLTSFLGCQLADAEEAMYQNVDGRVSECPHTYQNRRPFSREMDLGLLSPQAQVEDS
# Run Description: RBC HotSpot Kinase Assay, FLT3
# Type: biochemical
# Parameters: purchased Reaction Biology (RBC), HotSpot kinase assay
# Settings: isolated kinase, 33P-ATP
Units for pIC50: none; it is -log10 of a concentration expressed in mol/L.

compound=F[C@H]1CNC[C@@H]1Nc1cccc(-c2cnc3cnc(C4CC4)cn23)n1 measure_name=pIC50 observed_value=9.22

Could you now consider this next compound?
Dear colleague, I am looking for the recorded pIC50 of the following compound: CC(O)(c1cn2c(-c3nc(N[C@H]4CNC[C@@H]4F)c(F)cc3F)cnc2cn1)C(F)(F)F (single isomer, unassigned) [Compound 93]
9.00
